The reported measurements were obtained from patent US20140163026A1.

pIC50: −log10 of the molar value.
PAK1 (Homo sapiens, UniProt Q13153) measurements of pIC50, listed per entry.
Sequence (Q13153 whole entry): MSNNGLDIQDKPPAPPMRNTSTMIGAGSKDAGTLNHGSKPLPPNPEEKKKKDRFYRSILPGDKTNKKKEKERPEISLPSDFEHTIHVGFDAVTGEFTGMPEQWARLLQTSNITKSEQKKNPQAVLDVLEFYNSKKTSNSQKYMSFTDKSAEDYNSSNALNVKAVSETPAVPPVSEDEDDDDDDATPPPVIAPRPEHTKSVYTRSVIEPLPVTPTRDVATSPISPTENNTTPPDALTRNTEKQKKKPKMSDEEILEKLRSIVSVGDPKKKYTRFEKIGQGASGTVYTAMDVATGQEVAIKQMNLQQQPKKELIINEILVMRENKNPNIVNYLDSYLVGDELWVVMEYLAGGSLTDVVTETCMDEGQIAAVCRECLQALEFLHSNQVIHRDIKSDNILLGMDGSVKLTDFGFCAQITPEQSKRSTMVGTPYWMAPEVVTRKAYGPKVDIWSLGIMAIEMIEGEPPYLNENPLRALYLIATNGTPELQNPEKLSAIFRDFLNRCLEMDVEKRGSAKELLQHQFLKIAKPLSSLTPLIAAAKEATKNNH

The examples below pair each entry with its known result.
1) Cc1nccnc1-c1ccc(-c2cc3cnc(Nc4ccc(C5CCN(C)CC5)cc4)nc3n(C)c2=O)c(Cl)c1; > 7.30
2) CCn1c(=O)c(-c2ccc(-c3cccs3)s2)cc2cnc(Nc3ccc(N4CCN(C)CC4)cc3)nc21; < 5.30
3) CCn1c(=O)c(-c2ccc(-c3cnccn3)cc2F)cc2cnc(Nc3ccc(C4CCN(C)CC4)cc3)nc21; > 7.30
4) CCn1c(=O)c(-c2ccc(-c3noc(C)n3)cc2C)cc2cnc(Nc3ccc(C4CCN(C)CC4)cc3)nc21; > 7.30
5) CCn1c(=O)c(-c2ccc(-c3cnc(C)s3)cn2)cc2cnc(Nc3ccc(C4CCN(C)CC4)cc3)nc21; 5.30 to 6.30
6) CCn1c(=O)c(-c2ccc(-c3cccnc3C)cc2Cl)cc2cnc(Nc3ccc(C4CCNCC4)c(F)c3)nc21; > 7.30
7) CCn1c(=O)c(-c2ccc(-c3noc(C)n3)cc2Cl)cc2cnc(Nc3ccc(CCN4CCCC4)cc3)nc21; > 7.30

Here's the next entry for you.
Notebook entry, PAK1 (Homo sapiens, UniProt Q13153) assay: pIC50 of CCN1CCC(c2ccc(Nc3ncc4cc(-c5ccc(-c6ccc(C)nc6)cc5Cl)c(=O)n(CC)c4n3)cc2F)CC1 = ?
> 7.30

* * *

Target: UniProt Q13153
Recorded IC50, one value per entry.

1. CCn1c(=O)c(-c2ccc(-c3cncs3)cc2)cc2cnc(Nc3ccc(N4CCN(C)CC4)cc3)nc21; 0.05 to 0.5 µM

Quick one: IC50 of CCn1c(=O)c(-c2ccc(-c3cccnc3)cc2Cl)cc2cnc(Nc3ccc(N4CCN(C)CC4)c(F)c3)nc21 ?
< 0.05 µM

Quick one: IC50 of CCn1c(=O)c(-c2ccc(-c3cccnc3F)cc2Cl)cc2cnc(Nc3ccc(C4CCN(C(C)C)CC4)cc3)nc21 ?
< 0.05 µM

Quick one: IC50 of CCn1c(=O)c(-c2ccc(-c3cncnc3)cc2Cl)cc2cnc(Nc3ccc(N4CCN(C(C)C)CC4)cc3)nc21 ?
< 0.05 µM

Quick one: IC50 of CCn1c(=O)c(-c2ccc(-c3ccnc(C(=O)NC)c3)cc2Cl)cc2cnc(Nc3ccc(CCN(C)C)cc3)nc21 ?
0.05 to 0.5 µM

Quick one: IC50 of CCn1c(=O)c(-c2ccc(-c3cnc(C)s3)cc2Cl)cc2cnc(Nc3ccc(C4CCNCC4)c(F)c3)nc21 ?
< 0.05 µM

Quick one: IC50 of CCn1c(=O)c(-c2ccc(-c3cc(C)ncn3)cc2Cl)cc2cnc(Nc3ccc(C4CCN(C)CC4)cc3)nc21 ?
< 0.05 µM

Quick one: IC50 of CCn1c(=O)c(-c2ccc(-c3cccnc3C)cc2Cl)cc2cnc(Nc3ccc(C4CCN(C)CC4)cc3)nc21 ?
< 0.05 µM

* * *

PAK4 (Homo sapiens, UniProt O96013) measurements of IC50, listed per entry.
Sequence (O96013 whole entry): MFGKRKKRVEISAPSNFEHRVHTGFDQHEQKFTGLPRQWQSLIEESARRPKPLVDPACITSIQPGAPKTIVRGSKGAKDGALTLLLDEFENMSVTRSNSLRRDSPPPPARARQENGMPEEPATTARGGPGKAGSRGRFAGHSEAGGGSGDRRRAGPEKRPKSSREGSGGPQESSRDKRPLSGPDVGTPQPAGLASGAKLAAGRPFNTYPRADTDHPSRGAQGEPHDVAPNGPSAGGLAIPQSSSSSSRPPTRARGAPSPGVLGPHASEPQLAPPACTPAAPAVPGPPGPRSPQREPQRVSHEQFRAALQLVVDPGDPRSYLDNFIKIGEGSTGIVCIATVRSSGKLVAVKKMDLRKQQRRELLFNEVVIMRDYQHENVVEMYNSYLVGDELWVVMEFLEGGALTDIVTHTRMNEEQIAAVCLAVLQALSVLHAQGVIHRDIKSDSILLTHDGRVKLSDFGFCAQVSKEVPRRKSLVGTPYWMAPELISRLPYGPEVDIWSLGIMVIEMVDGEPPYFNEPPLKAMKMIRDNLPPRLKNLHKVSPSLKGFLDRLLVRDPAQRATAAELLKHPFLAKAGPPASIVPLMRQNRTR

1. CCOC(=O)c1cncnc1-c1ccc(-c2cc3cnc(Nc4ccc(C5CCN(C)CC5)cc4)nc3n(CC)c2=O)c(Cl)c1; ≥ 5 µM
2. CCn1c(=O)c(-c2ccc(-c3cccnc3C)cc2C)cc2cnc(Nc3ccc(C4CCN(C)CC4)cc3)nc21; ≥ 5 µM
3. CCn1c(=O)c(-c2ccc(-c3ccc(C)nc3)cc2Cl)cc2cnc(Nc3ccc(C4CCN(C)CC4)cc3)nc21; 0.5 to 5 µM

Here's the next entry for you.
Notebook entry, PAK4 (Homo sapiens, UniProt O96013) assay: IC50 of CCn1c(=O)c(-c2ccc(-c3ncncc3F)cc2Cl)cc2cnc(Nc3ccc(C4CCN(C)CC4)cc3)nc21 = ?
0.5 to 5 µM

* * *

Target: PAK3 (Homo sapiens, UniProt O75914)
Sequence (O75914 whole entry): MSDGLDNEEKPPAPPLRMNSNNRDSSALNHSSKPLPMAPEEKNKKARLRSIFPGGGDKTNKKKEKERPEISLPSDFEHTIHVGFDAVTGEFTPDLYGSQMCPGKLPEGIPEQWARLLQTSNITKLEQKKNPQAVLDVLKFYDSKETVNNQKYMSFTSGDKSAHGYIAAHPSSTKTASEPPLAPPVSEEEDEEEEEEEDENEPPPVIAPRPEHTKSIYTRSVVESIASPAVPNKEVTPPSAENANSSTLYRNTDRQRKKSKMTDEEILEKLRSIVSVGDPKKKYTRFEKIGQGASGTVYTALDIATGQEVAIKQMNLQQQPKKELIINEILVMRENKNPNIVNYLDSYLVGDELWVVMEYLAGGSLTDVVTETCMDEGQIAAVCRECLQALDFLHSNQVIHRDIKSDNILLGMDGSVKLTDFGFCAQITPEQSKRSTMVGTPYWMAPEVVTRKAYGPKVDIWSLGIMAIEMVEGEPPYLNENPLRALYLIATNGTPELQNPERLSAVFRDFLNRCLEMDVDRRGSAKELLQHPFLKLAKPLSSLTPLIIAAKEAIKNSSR
pIC50: −log10 of the molar value.
Recorded pIC50, one value per entry.

The examples below pair each entry with its known result.
1) CCn1c(=O)c(-c2ccc(-c3noc(C)n3)nc2)cc2cnc(Nc3ccc(C4CCN(C)CC4)cc3)nc21; 5.30 to 6.30
2) CCOC(=O)c1nc(-c2ccc(-c3cc4cnc(Nc5ccc(N6CCN(C)CC6)cc5)nc4n(CC)c3=O)c(Cl)c2)no1; 6.30 to 7.30
3) CN1CCC(c2ccc(Nc3ncc4cc(-c5ccc(-c6cccnc6F)cc5Cl)c(=O)n(C)c4n3)cc2)CC1; > 7.30
4) CCn1c(=O)c(-c2ccc(-c3ccc(C)nc3)cc2Cl)cc2cnc(Nc3ccc(C4CCN(C(C)C)CC4)cc3)nc21; 6.30 to 7.30
5) CNC(=O)c1cc(-c2ccc(-c3cc4cnc(Nc5ccc(CCN(C)C)cc5)nc4n(C)c3=O)c(Cl)c2)ccn1; 5.30 to 6.30
6) CCn1c(=O)c(-c2ccc(-c3cccnc3C)cc2Cl)cc2cnc(Nc3ccc(C4CCNCC4)c(F)c3)nc21; 6.30 to 7.30
7) CCn1c(=O)c(-c2ccc(-c3ccnc(C)c3)cc2Cl)cc2cnc(Nc3ccc(C4CCNCC4)cc3)nc21; 6.30 to 7.30
8) CCn1c(=O)c(-c2ccc(-c3ccoc3)cc2Cl)cc2cnc(Nc3ccc(N4CCN(C)CC4)cc3)nc21; > 7.30
9) CCn1c(=O)c(-c2ccc(-c3cnc(C)s3)cc2Cl)cc2cnc(Nc3ccc(CCN4CCOCC4)cc3)nc21; 6.30 to 7.30
10) CCOC(=O)c1cncnc1-c1ccc(-c2cc3cnc(Nc4ccc(C5CCN(C)CC5)cc4)nc3n(CC)c2=O)c(Cl)c1; 5.30 to 6.30

Quick one: pIC50 of CCn1c(=O)c(-c2ccc(-c3scnc3C)cc2Cl)cc2cnc(Nc3ccc(N4CCN(C(C)C)CC4)cc3)nc21 ?
6.30 to 7.30

Quick one: pIC50 of CCn1c(=O)c(-c2ccc(-c3noc(C)n3)cc2Cl)cc2cnc(Nc3ccc(C4CCNCC4)cc3)nc21 ?
> 7.30

Quick one: pIC50 of CC(=O)Nc1ccnc(-c2ccc(Cl)c(-c3cc4cnc(Nc5ccc(C6CCN(C)CC6)cc5)nc4n(C)c3=O)c2)n1 ?
< 5.30

Quick one: pIC50 of CCn1c(=O)c(-c2ccc(-c3cccnc3F)cc2Cl)cc2cnc(Nc3ccc(CCN4CCCC4)cc3)nc21 ?
> 7.30

Quick one: pIC50 of CCn1c(=O)c(-c2ccc(-c3ccnc(C(=O)NC)c3)cc2Cl)cc2cnc(Nc3ccc(C4CCNCC4)cc3)nc21 ?
6.30 to 7.30

Quick one: pIC50 of CCn1c(=O)c(-c2ccc(-c3ccc(NC(C)=O)nc3)cc2Cl)cc2cnc(Nc3ccc(N4CCN(C)CC4)cc3)nc21 ?
5.30 to 6.30

* * *

Recorded pIC50, one value per entry.
Target: PAK4 (Homo sapiens)
pIC50: −log10 of the molar value.

The examples below pair each entry with its known result.
1) CCn1c(=O)c(-c2ccc(-c3cccnc3)cc2Cl)cc2cnc(Nc3ccc(C4CCNC4)cc3)nc21 (centres unmarked); 5.30 to 6.30
2) CCn1c(=O)c(-c2ccc(-c3noc(C)n3)cc2Cl)cc2cnc(Nc3ccc(C4CCNCC4)c(F)c3)nc21; 5.30 to 6.30
3) Cc1ncccc1-c1ccc(-c2cc3cnc(Nc4ccc(CCN(C)C)cc4)nc3n(C)c2=O)c(Cl)c1; ≤ 5.30
4) CCn1c(=O)c(-c2ccc(-c3cnc(C)s3)cc2Cl)cc2cnc(Nc3ccc(CCN4CCCC4)cc3)nc21; 5.30 to 6.30
5) CCn1c(=O)c(-c2ccc(-c3ccc(C)nc3)cc2Cl)cc2cnc(Nc3ccc(C4CCNCC4)c(F)c3)nc21; 5.30 to 6.30
6) CCn1c(=O)c(-c2ccc(-c3noc(C)n3)cc2Cl)cc2cnc(Nc3ccc(C4CCNC4)cc3)nc21 (centres unmarked); 5.30 to 6.30
7) CCn1c(=O)c(-c2cc(C)c(-c3cccnc3)cc2Cl)cc2cnc(Nc3ccc(C4CCN(C)CC4)cc3)nc21; 6.30 to 7.30

Here's the next entry for you.
Quick one: pIC50 of CCN1CCC(c2ccc(Nc3ncc4cc(-c5ccc(-c6ccnc(C)c6)cc5Cl)c(=O)n(CC)c4n3)cc2F)CC1 ?
5.30 to 6.30

* * *

PAK2 (PAK65) (Homo sapiens, UniProt Q13177) measurements of IC50, listed per entry.
Sequence (Q13177 whole entry): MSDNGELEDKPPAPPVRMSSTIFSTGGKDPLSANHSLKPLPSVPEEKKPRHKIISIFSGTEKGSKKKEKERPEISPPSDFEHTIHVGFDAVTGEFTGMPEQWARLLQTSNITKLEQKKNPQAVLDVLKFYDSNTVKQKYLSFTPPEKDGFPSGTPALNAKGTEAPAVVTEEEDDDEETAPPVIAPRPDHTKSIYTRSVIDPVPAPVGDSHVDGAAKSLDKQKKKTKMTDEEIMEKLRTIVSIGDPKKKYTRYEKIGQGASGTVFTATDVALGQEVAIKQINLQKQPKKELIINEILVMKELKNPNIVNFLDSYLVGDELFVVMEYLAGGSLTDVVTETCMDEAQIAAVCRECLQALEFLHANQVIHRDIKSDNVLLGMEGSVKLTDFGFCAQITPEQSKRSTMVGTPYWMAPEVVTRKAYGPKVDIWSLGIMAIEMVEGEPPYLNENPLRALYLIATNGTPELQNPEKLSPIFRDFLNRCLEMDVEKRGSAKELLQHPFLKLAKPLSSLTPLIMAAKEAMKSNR

The examples below pair each entry with its known result.
1) CCn1c(=O)c(-c2ccc(-c3scnc3C)cc2Cl)cc2cnc(Nc3ccc(N4CCNCC4)cc3)nc21; < 0.05 µM
2) CCn1c(=O)c(-c2ccc(-c3ccc(C)nc3)cc2Cl)cc2cnc(Nc3ccc(C4CCN(C)CC4)cc3)nc21; < 0.05 µM
3) CN(C)CCc1ccc(Nc2ncc3cc(-c4ccc(-c5cccnc5N(C)C)cc4Cl)c(=O)n(C)c3n2)cc1; 0.5 to 5 µM
4) CCn1c(=O)c(-c2ccc(-c3cccnc3)cc2Cl)cc2cnc(Nc3ccc(N4CCN(C(C)C)CC4)c(F)c3)nc21; < 0.05 µM
5) CCn1c(=O)c(-c2ccc(-c3ccc(C(=O)NC)nc3)cc2Cl)cc2cnc(Nc3ccc(N4CCN(C)CC4)cc3)nc21; 0.05 to 0.5 µM

Notebook entry, PAK2 (PAK65) (Homo sapiens, UniProt Q13177) assay: IC50 of CCn1c(=O)c(-c2ccc(-c3cnc(C)s3)cn2)cc2cnc(Nc3ccc(C4CCN(C)CC4)cc3)nc21 = ?
> 5 µM

Notebook entry, PAK2 (PAK65) (Homo sapiens, UniProt Q13177) assay: IC50 of CCn1c(=O)c(-c2ccc(-c3noc(C)n3)cc2Cl)cc2cnc(Nc3ccc(N4CCN(C)CC4)c(F)c3)nc21 = ?
< 0.05 µM
